target.or.test.system: human MC3 receptor (Homo sapiens, UniProt P41968)
Sequence (P41968 whole entry): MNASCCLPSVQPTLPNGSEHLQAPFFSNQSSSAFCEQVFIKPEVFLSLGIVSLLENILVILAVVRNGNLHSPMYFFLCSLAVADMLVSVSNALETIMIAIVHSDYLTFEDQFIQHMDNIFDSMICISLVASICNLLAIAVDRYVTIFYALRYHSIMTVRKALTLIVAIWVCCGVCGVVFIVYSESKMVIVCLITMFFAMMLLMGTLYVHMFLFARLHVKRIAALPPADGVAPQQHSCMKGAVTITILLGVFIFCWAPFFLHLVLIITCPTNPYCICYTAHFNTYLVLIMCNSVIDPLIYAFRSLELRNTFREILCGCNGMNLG
assay.procedure: Human MC3 receptor activation, cAMP production in cells transiently expressing the receptor
test.parameters: FreeStyle 293-F cells expressing human MC3 receptor, α-MSH maximum = 100%
pEC50: −log10 of the molar value. Structures can show the parent of a compound that is named as a salt.
# pEC50 values compiled below

compound	pEC50
CC(=O)N[C@@H](CC(C)(C)C)C(=O)N1CCN(C(=O)[C@@H]2CN(C(C)C)C[C@H]2c2ccc(F)cc2F)[C@@H](C)C1 [Example 24, monohydrochloride]	5.19
CC(=O)N[C@@H](CC(C)(C)C)C(=O)N1C[C@H](C)N(C(=O)[C@@H]2CN(C(C)(C)C)C[C@H]2c2ccc(F)cc2F)C[C@H]1C.Cl [Example 4, monohydrochloride]	6.57
CC(=O)N[C@@H](CC(C)C)C(=O)N1CCN(C(=O)[C@@H]2CN(C(C)(C)C)C[C@H]2c2ccc(Cl)cc2F)C[C@H]1C [Example 5]	6.26
CC(=O)N[C@@H](CC(C)(C)C)C(=O)N1CCN(C(=O)[C@@H]2CN(C(C)(C)C)C[C@H]2c2ccc(F)cc2F)[C@@H](C)C1.Cl [Example 8]	6.00

---

target.or.test.system: rat MC4 receptor (Rattus norvegicus, UniProt P70596)
Sequence (P70596 whole entry): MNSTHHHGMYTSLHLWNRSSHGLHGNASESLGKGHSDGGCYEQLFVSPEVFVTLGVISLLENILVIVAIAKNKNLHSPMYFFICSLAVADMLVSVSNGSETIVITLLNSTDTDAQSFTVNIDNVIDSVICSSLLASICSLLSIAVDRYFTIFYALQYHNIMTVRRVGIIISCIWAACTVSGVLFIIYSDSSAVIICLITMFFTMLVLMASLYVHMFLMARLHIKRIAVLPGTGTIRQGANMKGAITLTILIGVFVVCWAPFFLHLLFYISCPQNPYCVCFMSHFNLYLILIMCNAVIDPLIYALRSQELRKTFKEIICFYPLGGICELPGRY
assay.procedure: Rat MC4 receptor activation, cAMP production in cells transiently expressing the receptor
test.parameters: FreeStyle 293-F cells expressing rat MC4 receptor, α-MSH maximum = 100%
pEC50: −log10 of the molar value.
Below: a set of entries, each annotated with reported pEC50.
assay.endpoint: pEC50

molecule	endpoint.value
CC(=O)N[C@@H](CC(C)(C)C)C(=O)N1CCN(C(=O)C2CN(C(C)(C)C)CC2c2ccc(Cl)cn2)[C@@H](C)C1 (stereo partly drawn) [Example 23]	8.32
CC(=O)N[C@@H](Cc1ccc(Cl)cc1)C(=O)N1CCN(C(=O)[C@@H]2CN(C(C)(C)C)C[C@H]2c2ccc(F)cc2F)[C@@H](C)C1 [Example 7]	7.82
CC(=O)N[C@@H](CC(C)C)C(=O)N1CCN(C(=O)[C@@H]2CN(C(C)(C)C)C[C@H]2c2ccc(Cl)cc2F)C[C@H]1C [Example 5]	8.48

---

Each entry below carries its reported EC50.
target.or.test.system: rat MC4 receptor (Rattus norvegicus, UniProt P70596)
assay.procedure: Rat MC4 receptor activation, cAMP production in cells transiently expressing the receptor
test.parameters: FreeStyle 293-F cells expressing rat MC4 receptor, α-MSH maximum = 100%
assay.endpoint: EC50 (nM)

compound	assay.endpoint	endpoint.value
CC(=O)N[C@H](C(=O)N1CCN(C(=O)[C@@H]2CN(C(C)(C)C)C[C@H]2c2ccc(F)cc2F)[C@@H](C)C1)C1CCCCC1.Cl [Example 6, monohydrochloride]	EC50	16
CC(=O)N[C@@H](CC(C)(C)C)C(=O)N1CCN(C(=O)[C@@H]2CN(C(C)(C)C)C[C@H]2c2ccc(F)cc2F)[C@@H](C)C1.Cl	EC50	4.7
CC(=O)N[C@@H](CC(C)(C)C)C(=O)N1C[C@H](C)N(C(=O)[C@@H]2CN(C(C)(C)C)C[C@H]2c2ccc(F)cc2F)C[C@H]1C.Cl [Example 4, monohydrochloride]	EC50	2

---

target.or.test.system: human MC4 receptor (Homo sapiens, UniProt P32245)
Construct: expressed in transfected cells; host or cells: FreeStyle 293-F cells (transient, electroporation)
Sequence (P32245 whole entry): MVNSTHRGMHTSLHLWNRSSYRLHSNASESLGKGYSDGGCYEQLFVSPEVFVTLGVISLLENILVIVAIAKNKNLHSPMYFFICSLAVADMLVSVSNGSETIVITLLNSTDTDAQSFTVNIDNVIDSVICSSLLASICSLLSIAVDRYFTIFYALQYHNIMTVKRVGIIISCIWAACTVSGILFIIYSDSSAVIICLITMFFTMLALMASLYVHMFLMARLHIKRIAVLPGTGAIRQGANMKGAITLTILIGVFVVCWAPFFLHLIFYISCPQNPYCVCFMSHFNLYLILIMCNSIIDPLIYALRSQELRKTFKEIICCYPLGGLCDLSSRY
assay.procedure: Human MC4 receptor activation, cAMP production in cells transiently expressing the receptor
Assay type: cell-based
test.parameters: FreeStyle 293-F cells expressing human MC4 receptor, α-MSH maximum = 100%
Protocol: (1) Construction of Human MC Receptor-Expressing Vector […] Measurement was carried out by using a LANCE (registered trademark) Ultra cAMP Kit (PerkinElmer, Inc.) in accordance with the attached instructions. […] The amount of cAMP was calculated using EnVision (registered trademark) (PerkinElmer Inc.). […]
Where a name gives a salt, the structure may show the parent alone.
Parameter: log10 of EC50. Scope: all listed entries.
assay.endpoint: log10 of EC50 (log10 of the value in nM)

compound	log10 of EC50
CC(=O)N[C@@H](CC(C)(C)C)C(=O)N1CCN(C(=O)[C@@H]2CN(C(C)C)C[C@H]2c2ccc(F)cc2F)[C@@H](C)C1 [Example 24, monohydrochloride]	1.89
CCC(=O)N[C@@H](CC(C)(C)C)C(=O)N1CCN(C(=O)[C@@H]2CN(C3CCOCC3)C[C@H]2c2ccc(Cl)cc2F)CC12CC2	1.53
CC(=O)N[C@@H](CC(C)(C)C)C(=O)N1CCN(C(=O)C2CN(C(C)(C)C)CC2c2ccc(Cl)cn2)[C@@H](C)C1 (stereo partly drawn)	1.36
CCC(=O)N[C@@H](CC(C)(C)C)C(=O)N1CCN(C(=O)[C@@H]2CN(C3CCOCC3)C[C@H]2c2ccc(Cl)cc2F)[C@@H](C)C1	2.11
C[C@H]1CN(C(=O)[C@@H](N)C2CCCCC2)CCN1C(=O)[C@@H]1CN(C(C)(C)C)C[C@H]1c1ccc(F)cc1F [Example 30, dihydrochloride]	3.26
CC(=O)N[C@@H](Cc1ccc(Cl)cc1)C(=O)N1CCN(C(=O)[C@@H]2CN(C(C)(C)C)C[C@H]2c2ccc(F)cc2F)[C@@H](C)C1	1.89
CC(=O)N[C@@H](CC1CCC(F)(F)CC1)C(=O)N1CCN(C(=O)[C@@H]2CN(C(C)(C)C)C[C@H]2c2ccc(F)cc2F)[C@@H](C)C1	2.58
CC(=O)N[C@@H](Cc1cccc(F)c1)C(=O)N1CCN(C(=O)[C@@H]2CN(C(C)(C)C)C[C@H]2c2ccc(F)cc2F)[C@@H](C)C1	1.60
CC(=O)N[C@@H](CC(C)(C)C)C(=O)N1C[C@H](C)N(C(=O)[C@@H]2CN(C3CCOCC3)C[C@H]2c2ccc(Cl)cc2F)C[C@H]1C	0.90

Hey, just so you know, these numbers are from patent US10710988B2.
